EXPERIMENTAL PROTOCOL: Study of pharmacokinetics in beagle dogs
Assay type: in vivo
DETAILS: dog, plasma; beagle dogs n=3, oral, gelatin capsule, 3 mg/kg as free form, fasted; mean ± standard error; read-out: plasma concentration after 24 hours (C24hr)
Procedure: A crystalline form of the free from of the carboxamide (obtained in Preparation Example 1), a crystalline form of the hydrobromide of the carboxamide (obtained in Example 2) and a crystalline form of the mesylate of the carboxamide (Form A) (obtained in Example 5) were grounded in a mortar, encapsulated in a gelatin capsule, and then administered orally to beagle dogs (n=3). After administration, 10 mL of water was further administered orally. […]
ENDPOINT LABEL: concentration at 24 h (ng/mL)

[
  {
    "COMPOUND": "COc1cc2nccc(Oc3ccc(NC(=O)NC4CC4)c(Cl)c3)c2cc1C(N)=O [free form]",
    "NUMERIC RESULT": 24
  }
]

The reported numbers originate from patent US7612208B2.
